Target: T1, MERS spike protein on recombinant CHO K1 cells (MERS-CoV, UniProt K9N5Q8 18-1353)
T1 sequence: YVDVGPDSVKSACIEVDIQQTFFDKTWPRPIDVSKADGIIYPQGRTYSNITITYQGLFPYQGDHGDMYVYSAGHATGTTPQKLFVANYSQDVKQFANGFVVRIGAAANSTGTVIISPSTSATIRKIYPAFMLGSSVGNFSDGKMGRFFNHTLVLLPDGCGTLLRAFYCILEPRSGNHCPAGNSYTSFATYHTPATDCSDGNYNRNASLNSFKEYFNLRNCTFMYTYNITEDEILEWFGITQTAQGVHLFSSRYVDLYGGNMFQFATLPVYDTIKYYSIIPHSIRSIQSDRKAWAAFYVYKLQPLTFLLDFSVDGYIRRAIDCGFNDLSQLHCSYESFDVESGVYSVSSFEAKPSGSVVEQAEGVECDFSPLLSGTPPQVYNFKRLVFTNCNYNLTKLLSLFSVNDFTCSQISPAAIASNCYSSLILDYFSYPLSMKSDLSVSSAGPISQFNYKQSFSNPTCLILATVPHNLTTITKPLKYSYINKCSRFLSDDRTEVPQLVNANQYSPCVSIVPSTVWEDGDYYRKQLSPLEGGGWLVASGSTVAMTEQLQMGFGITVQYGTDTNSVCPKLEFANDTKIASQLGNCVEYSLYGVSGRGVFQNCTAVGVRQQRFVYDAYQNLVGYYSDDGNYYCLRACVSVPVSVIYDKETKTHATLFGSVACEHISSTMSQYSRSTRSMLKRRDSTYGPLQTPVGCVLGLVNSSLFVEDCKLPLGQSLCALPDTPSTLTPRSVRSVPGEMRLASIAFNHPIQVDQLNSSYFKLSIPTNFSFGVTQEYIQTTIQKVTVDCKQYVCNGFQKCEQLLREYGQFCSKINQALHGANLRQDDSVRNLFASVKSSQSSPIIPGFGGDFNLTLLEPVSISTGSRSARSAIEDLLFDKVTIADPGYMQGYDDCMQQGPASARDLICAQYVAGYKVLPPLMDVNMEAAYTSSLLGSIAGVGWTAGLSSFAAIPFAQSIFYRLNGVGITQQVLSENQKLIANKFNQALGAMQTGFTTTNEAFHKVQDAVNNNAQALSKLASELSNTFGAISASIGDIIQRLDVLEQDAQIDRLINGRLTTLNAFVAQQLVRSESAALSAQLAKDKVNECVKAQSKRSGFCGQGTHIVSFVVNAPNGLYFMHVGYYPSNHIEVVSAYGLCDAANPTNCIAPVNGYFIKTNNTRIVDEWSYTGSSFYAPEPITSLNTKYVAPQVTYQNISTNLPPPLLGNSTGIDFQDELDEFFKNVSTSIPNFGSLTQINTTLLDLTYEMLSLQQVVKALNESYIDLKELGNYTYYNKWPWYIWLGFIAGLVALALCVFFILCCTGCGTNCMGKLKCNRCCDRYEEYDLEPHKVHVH
Test: FACS on CHO K1 cells
Recorded Metric: binding result

Task item: // binding result lookup, key: 15H1 VHH-Fc (Fc fusion) QVQLVESGGGLAQAGGSLRLSCASSGLIFSGSAMGWFRQAPGKEREFVGVISWNGRTTYADSVKGRFTISRDDAVNMVWLQMNNLKPEDTAVYYCAADHLNYGSGDVNPRTYDYWGQGTQVTVSS
Reply: no binding

Task item: // binding result lookup, key: 1E4 VHH-Fc (Fc fusion) QVLLVESGGGLVQAGGLLRLACSASGRTFTENVMGWFRQAPGKEREFVAAINWNTGSTYYSDSRKGRFTISKDNAKNTMFLQINNLKPEDTAVYYCGGTSSSYYYIGEFIPDYWGQGTQVTVSS
Reply: no binding

Task item: // binding result lookup, key: 8E9 VHH-Fc (Fc fusion) QVQLVESGGGLVEAGGSLRLSCVASGSSSSINAMGWYRQAPGKQRELVASISHDGETKYANSVKGRFTISRGNAKNTIYLQMNSLKPEDTAVYYCVGDVAWVVVAGEYDYWGQGTQVTVSS
Reply: no binding

Task item: // binding result lookup, key: 11F8 VHH-Fc (Fc fusion) QVQLVESGGGLVQAGGSLRLSCAASGRTVGYYAVGWFRQAPGKERDFVAAISWSGRNTNYADSVTGRFTIFRDNAKNTVDLQMNSLKPEDTAVYYCAADYWNYGSGSEVPNNYDTWGQGTQVTVSS
Reply: no binding

Task item: // binding result lookup, key: 15H7 VHH-Fc (Fc fusion) QVQLVESGGRLVQAGGSLRLSCAAPGRTFRNLTLGWFRQAPGKEREFVASTSWPDDEMTYYTDSVKGRFTISRDNAKNTVYLQMNSLKPEDTAVYYCAAASWSGRSTLSYDYDYWGQGTQVTVST
Reply: no binding

Task item: // binding result lookup, key: 3D4 VHH-Fc (Fc fusion) QVQLVESGGGLVQPGGSLRLSCAASGFTLDLNSIGWFRQAPGKEREGVSCISPSGSRMHYADSVKGRFTISRDNAKNTVYLQMNSLKPEDTAVYYCATGSPSYHYCSMYGLEYDSWGQGTQVTVPS
Reply: no binding

Task item: // binding result lookup, key: 10B8 VHH-Fc (Fc fusion) QVQLVESGGGLVQPGGSLRLSCAASGITLDYYAIAWFRQAPGKEREGVSCFCSSDGDIRYADSVKGRFTISRDNAKNTVYLQMNSLKPEDTAVYYCATERVYSSTWFFHRYSELDFGSWGRGTQVTVSS
Reply: no binding

Others:
Task item: // binding result lookup, key: 5D7 VHH-Fc (Fc fusion) QVQLVESGGGLVQAGGSLRLSCAASGRTGSRYIMGWFRQAPGKEREFVAAINWRGDSTYYADSVKGRFTIARDNAKNTAYLQMNSLKPEDTAVYYCVADRGESYYYTRSTEYTYWGQGTQVTVSS
Reply: no binding
